assay: yeast display, Sf9 membrane polyspecificity reagent, FACS + sequencing; frameworks hold sequencing errors
MEASURED_PARAMETER: polyreactivity (PSR sort gate)

ENTRY_SEQUENCE	MEASURED_PARAMETER	RESULT
QVQLVESGGGLVQAGGSLRLSCAASGRTQTRYTMGWYRQAPGKERELVATISRSGGNTHYADSLKGRFTISRDNAKNTVYLQMNSLKPEDTEVYYCNAVRYAIYGYDYWGQGTQVTVSS	polyreactivity (PSR sort gate)	high polyreactivity
QVQLVESGGGLVQAGGSLRLSCAASGFIFRYYAMGWYRQAPGKERELVAAISWRGGTTYYADSVKGRFTFSRDNAKNTVYLQMNSLKPDDTAVYYCAADWQWDLGPYIYQVEYWGQGTQVTVSS	polyreactivity (PSR sort gate)	high polyreactivity

These measurements were taken from the nanobody polyreactivity screen of Harvey et al. (2022).
